The entries below are paired with their reported peptide exchange yield.
Subject of test: T1, HLA-B*44:02 (human)
T1 construct: Peptide-receptive MHC class I monomer made by UV cleavage of a UV-sensitive ligand
Test details: UV ligand exchange ELISA; exchange yield grade
Property name: peptide exchange yield

>>> print(df.to_string())
          binder  experimental_result
 0      TEYPVFVY            10 to 20%
 1     SESTFDRTF            50 to 75%
 2     EEVTDRSQL            20 to 50%
 3     EENTLVQNY            20 to 50%
 4    EEEGNLLRSW            50 to 75%
 5     VEDGLFHEF            50 to 75%
 6    KEFEQVPGHL            20 to 50%
 7     SENEQRRMF            50 to 75%
 8     EEETILHFF            20 to 50%
 9     SEKETVAYF            50 to 75%
10     SESKTVVTY            50 to 75%
11  AEIGEGAYGKVF            50 to 75%
12     DEAQARAAF            20 to 50%
13    AEIKQTEEKY            20 to 50%
14     QENMQIQSF            50 to 75%
15    QENQAETHAW            50 to 75%
16  GEAVTDHPDRLW            50 to 75%
17     EEGNLLRSW            50 to 75%
18     SEDHSGSYW            50 to 75%
19     EEFETIERF            20 to 50%
20     RMPPFTQAF            20 to 50%
21    AEIEIVKEEF            20 to 50%
22     KEFELRSSW            50 to 75%
23     YEYDLKWEF            50 to 75%
24     SQAPAARAF            20 to 50%
25    QEIQSLLTNW            50 to 75%
26     GELGGSVTI            50 to 75%
27     SEGDNVESW            50 to 75%
28    EEGDTLLHLF            50 to 75%
29     KELPGVKKY            20 to 50%
30     KEFFFVKVF            50 to 75%
31    GESQDSTTAL            20 to 50%
